System: Septoria nodorum
Assay: Test H: wheat glum blotch, preventive spray on wheat seedlings
Conditions: 40 ppm (marked *); 100 = 100% disease control, 0 = no control
Marks after values point to notes of the source that are not given here.
measured metric: Test H disease control rating

Complete the entry with Test H disease control rating for O=c1c(-n2cccn2)nc(Cl)c(-c2ccc(F)cc2Cl)n1-c1ccccc1
98* %

Complete the entry with Test H disease control rating for O=c1c(-n2cccn2)nc(Cl)c(-c2c(F)cccc2F)n1-c1ccccc1F
99* %

Complete the entry with Test H disease control rating for O=c1c(-n2cccn2)nc(Cl)c(-c2c(F)cc(F)cc2F)n1Cc1ccc(C(F)(F)F)cc1
0* %

Complete the entry with Test H disease control rating for CC[C@H](C)Cn1c(-c2ccc(F)cc2Cl)c(Cl)nc(-n2ccc(C)n2)c1=O
100* %

Complete the entry with Test H disease control rating for CSCC(C)n1c(-c2c(F)cccc2F)c(Cl)nc(-n2ccc(C)n2)c1=O (centres unmarked)
0* %

Complete the entry with Test H disease control rating for Cc1cccc(-n2c(-c3c(F)cccc3F)c(Cl)nc(-n3cccn3)c2=O)c1
100* %

Complete the entry with Test H disease control rating for O=c1c(-n2cccn2)nc(Cl)c(-c2c(F)cc(F)cc2F)n1-c1cccc(F)c1F
100* %

Complete the entry with Test H disease control rating for Cc1ccn(-c2nc(Cl)c(-c3c(F)cc(F)cc3F)n(-c3ccccc3)c2=O)n1
100* %

----------
Assign Test G disease control rating to each entry below.
System: Rhizoctonia oryzae
Assay: Test G: turf brown patch, preventive spray on creeping bent grass seedlings
Conditions: 40 ppm (*)
Marks after values point to notes of the source that are not given here.

Tell me Test G disease control rating of Cc1ccn(-c2nc(Br)c(-c3c(F)cccc3F)n(CC(C)C)c2=O)n1 [compound 242] when tested on Rhizoctonia oryzae.
82* %

Tell me Test G disease control rating of CCn1c(-c2c(F)cccc2F)c(Cl)nc(-n2cccn2)c1=O [compound 184] when tested on Rhizoctonia oryzae.
88* %

Tell me Test G disease control rating of CCC(C)Cn1c(-c2ccc(F)cc2Cl)c(Cl)nc(N2CCC(=O)N2)c1=O (stereo not drawn) [compound 217] when tested on Rhizoctonia oryzae.
0* %

Tell me Test G disease control rating of CC(C)Cn1c(-c2cc(F)cc(F)c2F)c(Cl)nc(-n2cccn2)c1=O [compound 139] when tested on Rhizoctonia oryzae.
91* %

Tell me Test G disease control rating of CC(C)Cn1c(-c2ccc(Cl)o2)c(Cl)nc(-n2cncn2)c1=O [compound 156] when tested on Rhizoctonia oryzae.
0* %

Tell me Test G disease control rating of CC(C)Cn1c(-c2ccc(C(F)(F)F)cc2)c(Cl)nc(-n2cncn2)c1=O [compound 76] when tested on Rhizoctonia oryzae.
0* %

Tell me Test G disease control rating of CC(C)Cn1c(-c2ccoc2)c(Cl)nc(-n2cccn2)c1=O [compound 153] when tested on Rhizoctonia oryzae.
0* %

Tell me Test G disease control rating of COCCn1c(-c2c(F)cccc2F)c(Cl)nc(-n2cncn2)c1=O [compound 96] when tested on Rhizoctonia oryzae.
0* %

Tell me Test G disease control rating of CS(=O)(=O)CCn1c(-c2c(F)cccc2F)c(Cl)nc(-n2cncn2)c1=O [compound 127] when tested on Rhizoctonia oryzae.
0* %

Tell me Test G disease control rating of CC1CCCCC1n1c(-c2c(F)cccc2F)c(Cl)nc(-n2cccn2)c1=O (stereo not drawn) [compound 224] when tested on Rhizoctonia oryzae.
92* %

Tell me Test G disease control rating of CCCCn1c(-c2c(F)cc(F)cc2F)c(Cl)nc(-n2cncn2)c1=O [compound 229] when tested on Rhizoctonia oryzae.
16* %

Tell me Test G disease control rating of CC1CCCCC1n1c(-c2c(F)cccc2F)c(Cl)nc(C#N)c1=O (stereo not drawn) [compound 223] when tested on Rhizoctonia oryzae.
0* %

Tell me Test G disease control rating of CCc1nccn1-c1nc(Cl)c(-c2c(F)cccc2F)n(CC(C)CC)c1=O (stereo not drawn) [compound 70] when tested on Rhizoctonia oryzae.
0* %

Tell me Test G disease control rating of CCC(C)Cn1c(-c2c(F)cccc2F)c(Cl)nc(-n2ccc(C#N)n2)c1=O (stereo not drawn) [compound 81] when tested on Rhizoctonia oryzae.
31* %

Tell me Test G disease control rating of Cc1cccc(-c2c(Cl)nc(-n3cccn3)c(=O)n2CC(C)C)c1 [compound 248] when tested on Rhizoctonia oryzae.
0* %

Tell me Test G disease control rating of CC(CCl)n1c(-c2c(F)cccc2F)c(Cl)nc(-n2cncn2)c1=O (stereo not drawn) [compound 214] when tested on Rhizoctonia oryzae.
0* %

Tell me Test G disease control rating of CSCC(C)n1c(-c2c(F)cccc2F)c(Cl)nc(-n2cncn2)c1=O (stereo not drawn) [compound 199] when tested on Rhizoctonia oryzae.
0* %

Tell me Test G disease control rating of CC(C)Cn1c(-c2cc(Cl)cc(Cl)c2)c(Cl)nc(-n2cncn2)c1=O [compound 116] when tested on Rhizoctonia oryzae.
0* %
